Where these numbers come from: patent US20180057596A1

molecular target: T1, cynomolgus IL4Rα/Fc HIS6 (HEK expressed) (cynomolgus monkey); assay: HTRF receptor-ligand assay, purified scFv against biotinylated cynomolgus IL4
T1 construct: also called Cyno IL4R; cynomolgus IL-4Rα HIS Fc (in house HEK-EBNA derived); not shown: HIS6 tag
T1 sequence (chain, as listed by the source): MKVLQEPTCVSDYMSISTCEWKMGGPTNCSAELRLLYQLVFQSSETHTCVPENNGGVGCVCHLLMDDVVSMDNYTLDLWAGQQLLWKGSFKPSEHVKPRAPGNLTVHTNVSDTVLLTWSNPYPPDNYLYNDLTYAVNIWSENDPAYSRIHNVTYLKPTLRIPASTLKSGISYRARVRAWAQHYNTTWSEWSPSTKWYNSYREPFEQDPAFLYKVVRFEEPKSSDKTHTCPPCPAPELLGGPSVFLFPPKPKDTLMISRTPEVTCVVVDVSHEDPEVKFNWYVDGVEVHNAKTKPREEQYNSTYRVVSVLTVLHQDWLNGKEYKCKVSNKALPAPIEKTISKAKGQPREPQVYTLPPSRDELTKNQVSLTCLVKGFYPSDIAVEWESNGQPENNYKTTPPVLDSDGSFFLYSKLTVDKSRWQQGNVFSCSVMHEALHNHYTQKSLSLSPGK
parameter: pKi
// pKi here means minus log10 of the molar concentration (mol/L)

-- ask Supply pKi value. Item: Antibody 34 scFv (scFv, V domains shown, tested as purified scFv) VH: QVQLVQSGAEVKKPGASVKVSCKASGYAFTSYYMHWARQAPGQGLEWMGIINPSGGSTSYAQKFQGRVSMTRDTSTSTVYMELSSLRSEDTAVYYCARGKYWMYDWGKGTLVTVSS VL: QSVLTQPPSVSAAPGQKVTISCSGGSSNIGNSYVSWYQQLPGTAPKLLIYDNNKRPSGIPDRFSGSKSGTSATLAITGLQTGDEADYFCGTWDTSTVWEWPFGTGTKLTVL
-- reply 8.92

-- ask Supply pKi value. Item: Antibody 33 scFv (scFv, V domains shown, tested as purified scFv) VH: QVQLVQSGAEEKKPGASVKVSCKASGYAFTSYYMHWARQAPGQGLEWMGIINPSGGSTSYAQKFQGRVTMTRDTSTSTVYMELSSLRSEDTAVYYCARGKYWMYDWGKGTLVTVSS VL: QSALTQPPSVSAAPGQKVTISCSGGSSNIGNSYVSWYQQLPGTAPKLLIYDNNKRPSGIPDRFSGSKSGTSATLAITGLQTGDEADYFCGTWDTSTVWEWPFGTGTKLTVL
-- reply 8.85

-- ask Supply pKi value. Item: Antibody 4 scFv (scFv, V domains shown, tested as purified scFv) VH: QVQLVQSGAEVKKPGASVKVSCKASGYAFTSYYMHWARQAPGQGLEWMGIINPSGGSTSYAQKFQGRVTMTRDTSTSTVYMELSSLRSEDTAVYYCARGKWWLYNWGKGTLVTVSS VL: QSVLTQPPSVSAAPGQKVTISCSGGSSNIGNSYVSWYQQLPGTAPKLLIYDNNKRPSGIPDRFSGSKSGTSATLAITGLQTGDEADYYCGTWDTSSPPQPIFGTGTKLTVL
-- reply 8.17

-- ask Supply pKi value. Item: Antibody 37GL scFv (scFv, V domains shown, tested as purified scFv; also called NCIMB 41600) VH: QVQLVQSGAEVKKPGASVKVSCKASGYAFTSYYMHWVRQAPGQGLEWMGIINPRGGSTSYAQKFQGRVTMTRDTSTSTVYMELSSLRSEDTAVYYCARGKYWMYDWGKGTLVTVSS VL: QSVLTQPPSVSAAPGQKVTISCSGGGSSIGNSYVSWYQQLPGTAPKLLIYDNNKRPSGIPDRFSGSKSGTSATLGITGLQTGDEADYYCGTWDTSPVWEWPFGTGTKLTVL
-- reply 9.15

-- ask Supply pKi value. Item: Antibody 39 scFv (scFv, V domains shown, tested as purified scFv) VH: QVQLVQSGAEVKKPGASVKVSCKASGYAFTSYYMHWARQAPGQGLEWMGIINPRGGSTSYAQKFQGRVTMTRDTSTSTVYMELSSLRSEDTAVYYCARGKYWMYDWGKGTLVTVSS VL: QSVLTQPPSVSAAPGQKVTISCSGGSSNIGNSYVSWYQQLPGTAPKLLIYDNNKRPSGIPDRFSGSKSGTSATLAITGLQTGDEADYYCGTWDTSTAWEWPFGTGTKLTVL
-- reply 8.80

-- ask Supply pKi value. Item: Antibody 10 scFv (scFv, V domains shown, tested as purified scFv) VH: QVQLVQSGAEVKKPGASVKVSCKASGYAFTSYYMHWARQAPGQGLEWMGIINPSGGSTSYAQKFQGRVTMTRDTSTSTVYMELSSLRSEDTAVYYCARGKWWLYDWGKGTLVTVSS VL: QSVLTQPPSVSAAPGQKVTISCSGGSSNIGNSYVSWYQQLPGTAPKLLIYDNNKRPSGIPDRFSGSKSGTSATLAITGLQTGDEADYYCGTWDTSTVLTPIFGTGTKLTVL
-- reply 7.71

-- ask Supply pKi value. Item: Antibody 38 scFv (scFv, V domains shown, tested as purified scFv) VH: QVQLVQSGAEVKKPGASVKVSCKASGYAFTSYYMHWARQAPGQGLEWMGIINPSGGSASYAQKFQGRVTMTRDTSTSTVYMELSSLRSEDTAVYYCARGKYWMYDWGKGTLVTVSS VL: QSVLTQPPSVSAAPGQKVTISCSGGSSNIGNSYVSWYQQLPGTAPKLLIYDNNKRPSGIPDRFSGSKSGTSATLAITGLQTGDEADYFCGTWDTSTVWEWPFGTGTKLTVL
-- reply 8.57

-- ask Supply pKi value. Item: Antibody 16 scFv (scFv, V domains shown, tested as purified scFv) VH: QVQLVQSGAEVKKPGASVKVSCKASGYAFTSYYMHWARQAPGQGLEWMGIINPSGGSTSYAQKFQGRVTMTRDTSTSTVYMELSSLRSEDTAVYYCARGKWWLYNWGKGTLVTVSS VL: QSVLTQPPSVSAAPGQKVTISCSGGSSNIGNSYVSWYQQLPGTAPKLLIYDNNKRPSGIPDRFSGSKSGTSATLAITGLQTGDEADYYCGTWDTSTTYHPIFGTGTKLTVL
-- reply 8.06

-- ask Supply pKi value. Item: Antibody 36 scFv (scFv, V domains shown, tested as purified scFv) VH: QVQLVQSGAEVKKPGASVKVSCKASGYAFTSYYMHWARQAPGQGLEWMGIINPSGGSASYAQKFQGRVTMTRDTSTSTVYMELSSLRSEDTAVYYCARGKYWMYDWGKGTLVTVSS VL: QSVLTQPPSVSAAPGQKVTISCSGGSSNIGNSYVSWYQQLPGTAPKLLIYDNNKRPSGIPDRFSGSKSGTSATLAITGLQTGDEADYYCGTWDSSTVWEWPFGTGTKLTVL
-- reply 8.28

-- ask Supply pKi value. Item: Antibody 28 scFv (scFv, V domains shown, tested as purified scFv) VH: QVQLVQSGAEVKKPGASVKVSCKASGYAFTSYYMHWARQAPGQGLEWMGIINPSGGSTSYAQKFQGRVTMTRDTSTSTVYMELSSLRSEDTAVYYCARGKYWMYDWGNGTLVTVSS VL: LPVLTQPPSVSAAPGQKVTISCSGGSSSIGNSYVSWYQQLPGAAPKLLIYDNNKRPSGIPDRFSGFRSGTSATLAITGLQTGDEADYYCGTWDTSPVWEWPFGTGTKLTVL
-- reply 8.74
